Provenance of the data: ChEMBL document CHEMBL1142926

test system: Mycobacterium kansasii; test: Antimycobacterial activity against Mycobacterium kansasii 235/80 after 14 days; format: functional; settings: 336 h
Assign MIC to each entry below.
Give bare numbers, in µM.

I need MIC for every entry listed below, if you could help.
1. O=C(N/N=C\N1CCN(c2cc3c(cc2F)c(=O)c(C(=O)O)cn3C2CC2)CC1)c1ccncc1
2. O=C(NN/C=N/C(=O)c1cnccn1)c1ccncc1

OUTPUT:
1: 4; 2: 1000

I need MIC for every entry listed below, if you could help.
1. O=C(N/N=C/NCc1ccccn1)c1ccncc1
2. O=C(N/N=C/NCc1ccccc1)c1ccncc1
3. CN(C)/C=N/NC(=O)c1ccncc1

OUTPUT:
[1000, 1000, 500]

I need MIC for every entry listed below, if you could help.
1. O=C(/N=C/Nc1ccc(C(=O)O)c(O)c1)c1cnccn1
2. O=C(N/N=C/Nc1ccc(C(=O)O)c(O)c1)c1ccncc1
3. CCC(CO)N1CCN(C(CC)CO)C1OS(=O)(=O)c1ccc(C)cc1 (stereo unspecified)
4. O=C(/N=C/N1CCN(c2cc3c(cc2F)c(=O)c(C(=O)O)cn3C2CC2)CC1)c1cnccn1

OUTPUT:
1. 32
2. 1000
3. 1000
4. 2
